All figures here come from patent US20230257396A1.

test system: kinases; test: KINOMEscan kinase binding assay (Eurofins/DiscoveRx), % Ctrl; conditions: target EGFR(L747-T751del, Sins); 1 μM
Returns one of satisfied or not satisfied; satisfied when % Ctrl, EGFR(L747-T751del, Sins) is >= 80 % Ctrl.

Enquiry: Could you verify whether the entry Cc1cc2c([nH]1)/C=C1\C(=O)Nc3cnc(cc31)-c1cn[nH]c1CNCCN(C)C2=O shows % Ctrl, EGFR(L747-T751del, Sins) of no less than 80 % Ctrl?
Return: not satisfied

Enquiry: Form field: % Ctrl, EGFR(L747-T751del, Sins) at least 80 % Ctrl? Entry: Cc1cc2c([nH]1)/C=C1\C(=O)Nc3cc(Cl)c(cc31)OCCO[C@@H](C(=O)N1CCN(C)CC1)CN(C)C2=O
Return: satisfied

Enquiry: Hello, I need to know if Cc1nn(C)c2c1-c1ccc3c(c1)/C(=C/c1[nH]ccc1C(=O)N(C)CCCO2)C(=O)N3 has measured % Ctrl, EGFR(L747-T751del, Sins) not below 80 % Ctrl. Thanks!
Return: satisfied

Enquiry: Exam item: decide whether the reported % Ctrl, EGFR(L747-T751del, Sins) for CN1CCSCCOc2cc3c(cc2Cl)NC(=O)/C3=C\c2[nH]ccc2C1=O is at least 80 % Ctrl.
Return: not satisfied

Enquiry: Does the compound CN1CCOCCOc2cc3c(cc2Cl)NC(=O)/C3=C\c2[nH]ccc2C1=O have recorded % Ctrl, EGFR(L747-T751del, Sins) that is 80 % Ctrl or more?
Return: satisfied

Enquiry: Threshold query (% Ctrl, EGFR(L747-T751del, Sins) >= 80 % Ctrl) on Cc1cc2c([nH]1)/C=C1\C(=O)Nc3ccc(cc31)-c1c(C)nn(C)c1COCCN(C)C2=O
Return: not satisfied

----------
target: kinases (Homo sapiens, UniProt P36888, D835H); construct: purchased Eurofins/DiscoveRx; host or cells: E. coli BL21-derived host (T7 phage display) for most kinases; HEK-293 for the rest; assay: KINOMEscan kinase binding assay (Eurofins/DiscoveRx), % Ctrl; conditions: 1 μM; target FLT3(D835H)
I'd appreciate it if you marked entries t when % Ctrl, FLT3(D835H) is lower than 0.7 % Ctrl and f when it is not.

Enquiry: Hello, I'm reviewing records and need to know if % Ctrl, FLT3(D835H) of Cc1cc2c([nH]1)/C=C1\C(=O)Nc3cc(Cl)c(cc31)SCCOCCN(C)C2=O [Ex. 169] is below 0.7 % Ctrl. Could you check?
Return: t

Enquiry: Regarding Cc1cc2c([nH]1)/C=C1\C(=O)Nc3ccc(cc31)-c1c(noc1C(C)C)COCCN(C)C2=O [Ex. 161] , kindly confirm whether its % Ctrl, FLT3(D835H) is beneath 0.7 % Ctrl.
Return: f

Enquiry: Item Cc1cc2c([nH]1)/C=C1\C(=O)Nc3cnc(cc31)-c1cnn(C)c1CN(C)CCN(C)C2=O [Ex. 172] : % Ctrl, FLT3(D835H) beneath 0.7 % Ctrl, strictly?
Return: f

Enquiry: Identify whether the molecule CN1CCOc2cc3c(cc2Cl)NC(=O)/C3=C\c2[nH]ccc2C(=O)N(C)CC1 [Ex. 164] records % Ctrl, FLT3(D835H) below 0.7 % Ctrl.
Return: t

----------
target: kinases (Homo sapiens); construct: purchased Eurofins/DiscoveRx; host or cells: E. coli BL21-derived host (T7 phage display) for most kinases; HEK-293 for the rest; assay: KINOMEscan kinase binding assay (Eurofins/DiscoveRx), % Ctrl; details: 1 μM; target EGFR
Short version: % Ctrl, EGFR at least 70 % Ctrl is Condition met, less is Condition not met.

Enquiry: Assess whether reported % Ctrl, EGFR for Cc1cc2c([nH]1)/C=C1\C(=O)Nc3cnc(cc31)-c1cnn(C)c1CN(C)CCN(C)C2=O sits at 70 % Ctrl or higher.
Return: Condition not met

Enquiry: In plain terms: is recorded % Ctrl, EGFR at least 70 % Ctrl for Cc1cc2c([nH]1)/C=C1\C(=O)Nc3cc(Cl)c(cc31)SCCOCCN(C)C2=O ?
Return: Condition not met

Enquiry: For this compound, is measured % Ctrl, EGFR 70 % Ctrl or higher? CN1CCOc2cc3c(cc2Cl)NC(=O)/C3=C\c2[nH]ccc2C(=O)N(C)CC1
Return: Condition met

Enquiry: Is reported % Ctrl, EGFR greater than or equal to 70 % Ctrl here: Cc1cc2c([nH]1)/C=C1\C(=O)Nc3ccc(cc31)-c1c(noc1C(C)C)COCCN(C)C2=O
Return: Condition met
